Target: Fabrazyme® (commercial recombinant lysosomal α-galactosidase, GH 27) (Homo sapiens, UniProt P06280)
Construct: purchased
Sequence (P06280 32-429): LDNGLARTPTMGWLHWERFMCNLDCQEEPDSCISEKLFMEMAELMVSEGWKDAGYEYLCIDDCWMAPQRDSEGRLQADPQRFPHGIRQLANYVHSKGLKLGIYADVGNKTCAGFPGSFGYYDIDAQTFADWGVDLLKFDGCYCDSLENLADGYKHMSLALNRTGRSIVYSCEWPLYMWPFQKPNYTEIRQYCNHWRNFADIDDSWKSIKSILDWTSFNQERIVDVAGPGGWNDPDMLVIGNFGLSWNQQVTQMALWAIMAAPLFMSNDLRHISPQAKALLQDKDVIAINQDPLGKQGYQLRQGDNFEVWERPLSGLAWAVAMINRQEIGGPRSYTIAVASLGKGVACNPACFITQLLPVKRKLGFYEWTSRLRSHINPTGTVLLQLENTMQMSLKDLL
Assay: Ki determination with Fabrazyme (acid α-galactosidase)
Format: biochemical
Conditions: pH 5.5, substrate Gal-α-dNP, room temperature
pKi: −log10 of the molar value.
Let's look at some compounds and their measured pKi.
PROPERTY_MEASURED: pKi

> print(dat)
                              record.smiles  property.measured  data.value
1  CCCCCCCCCN[C@@H]1[C@H](O)[C@@H](O)[C@@H](O)[C@H]1CO                pKi        6.28
2  CCCCCCN[C@@H]1[C@H](O)[C@@H](O)[C@@H](O)[C@H]1CO                pKi        5.31
3  N[C@@H]1[C@H](O)[C@@H](O)[C@@H](O)[C@H]1CO                pKi        5.02
4  CN(C)c1cccc2c(S(=O)(=O)NCCCCCCN[C@@H]3[C@H](O)[C@@H](O)[C@@H](O)[C@H]3CO)cccc12                pKi        5.36
